# Read-out: Thrombomodulin, THBD (gene 7056)
# procedure_summary: BSK_3C_Thrombomodulin: BioMAP Diversity Plus: 3C Assay for Thrombomodulin Biomarker Activity (AID 2283029)
# measurement_conditions: primary human endothelial cells (HUVEC); actives raise or lower the signal
Activity calls are given as the source filed them. How the source made its calls: active means hit-call score of the fitted dose curve at least 0.9, where 1 is the maximum; inactive means score below 0.9.
Outcomes: yes = active, no = inactive

> print(dat)
                                    compound  class.name
 1  CCN(CC)CCOc1ccc(C(=C(Cl)c2ccccc2)c2ccccc2)cc1         yes
 2         O=C1NC(=O)C(c2ccccc2)(c2ccccc2)N1          no
 3                  CCCCOC(=O)CCCCC(=O)OCCCC          no
 4  CC(=O)S[C@H](C(=O)N[C@H]1Cc2ccccc2[C@H]2CCC[C@@H](C(=O)O)N2C1=O)C(C)C          no
 5  CCC(C)N(C)C(=O)c1cc2ccccc2c(-c2ccccc2Cl)n1 (configuration not stated)          no
 6  CCCCC(CC)COC(=O)CCCCCCCC(=O)OCC(CC)CCCC (configuration not stated)          no
 7          N[C@@H](Cc1c[nH]c2ccccc12)C(=O)O          no
 8                   NC(=Nc1ccccc1)Nc1ccccc1          no
 9  CN(C)C(=O)NC1(c2ccccc2)CCN(CC[C@@]2(c3ccc(F)c(F)c3)CN(C(=O)c3ccccc3)CCO2)CC1          no
10                             c1ccc2occc2c1          no
11                                 NC1CCCCC1          no
12                O=C(O)CC(O)(CC(=O)O)C(=O)O          no
13                                   CC(N)=O          no
14                                NCCOCCOCCN          no
15                            O=Cc1ccccc1C=O          no
16                  O=C(O)CN(CC(=O)O)CC(=O)O          no
17          CN(C)CCCN1c2ccccc2Sc2ccc(Cl)cc21          no
18  COc1ccc(OC(F)(F)F)cc1CN[C@H]1CCCN[C@H]1c1ccccc1         yes
19  CC(C)c1cccc(C(C)C)c1NC(=O)NS(=O)(=O)c1cc(C(C)(C)O)co1          no
20                          CC(C)(C)c1ccccc1          no
21  CC(C)NCC(O)c1ccc(O)c(O)c1 (configuration not stated)          no
22                                      O=NO          no
23  O=C(NS(=O)(=O)/C=C/c1cccs1)c1ccc(F)cc1Br          no
24              CC(C)COC(=O)CCCCC(=O)OCC(C)C          no
25                      CN(C)CCCN(C)CCCN(C)C          no
26  CC(COCC(C)OC(=O)c1ccccc1)OC(=O)c1ccccc1 (configuration not stated)          no
27                           C=CCCCCCCCCCCCC          no
28                                 CCOCCOCCO          no
29                  Nc1nc(=S)c2[nH]cnc2[nH]1          no
30  O=C(N[C@@H](c1ccccc1)[C@@H]1CCCCN1)c1cccc(C(F)(F)F)c1Cl          no
31  CC(=O)O[C@]1(C(C)=O)CC[C@H]2[C@@H]3C=C(Cl)C4=CC(=O)[C@@H]5C[C@@H]5[C@]4(C)[C@H]3CC[C@@]21C          no
32                      C=CCc1ccc(OC)c(OC)c1          no
33               CC1=C(C)S(=O)(=O)CCS1(=O)=O          no
34                    CCCCCCC(C=O)=Cc1ccccc1          no
35                              Oc1ccc(O)cc1          no
36                                O=C1CCCCC1          no
37  CC(=O)[C@@]1(O)CC[C@H]2[C@@H]3CCC4=CC(=O)CC[C@]4(C)[C@H]3CC[C@@]21C          no
